- TARGET_DESC: Cy3-labelled v3΄ nt 1–18
- METHOD_NOTES: FRET assay of RNA-RNA interaction with v3΄ nt 1–18
- Assay type: binding
- ASSAY_SETUP: FAM-labelled 5΄ RNA; T = 25°C; listed as c5΄
EXPERIMENTAL_ENDPOINT: Kd

# input Test system Cy3-labelled v3΄ nt 1–18; read-out Kd; what value for 5′-pAGCAGAAGCAGAGGUAUA-3′ [c5'] ?
# output ~0.03 nM

----------
- TARGET_DESC: influenza B polymerase, vPol (c5' hook) (Influenza B virus)
- METHOD_NOTES: biochemical
- Set-up: species or system influenza B/Memphis/13/03
EXPERIMENTAL_ENDPOINT: IC50 (µM)
The figure you give is taken to be in µM; do not add the unit.

[[record]]
smiles = "O=c1ccn([C@@H]2O[C@H](COP(=O)(O)OP(=O)(O)OP(=O)(O)O)[C@@H](O)[C@H]2F)c(=O)[nH]1"
reading = 300


--- query ---
# input Test system influenza B polymerase, vPol (c5' hook) (Influenza B virus); read-out IC50; what value for Nc1ccn([C@@H]2O[C@H](COP(=O)(O)OP(=O)(O)OP(=O)(O)O)[C@@H](O)[C@H]2F)c(=O)n1 ?
# output 100

----------
- TARGET_DESC: Cy3-labelled v3΄ nt 1–18
- METHOD_NOTES: FRET assay of RNA-RNA interaction with v3΄ nt 1–18
- Format: binding
- ASSAY_SETUP: FAM-labelled 5΄ RNA; T = 25°C
EXPERIMENTAL_ENDPOINT: pKd
Quick note: pKd means taking -log10 of the concentration in moles per liter.

# input Quick check: pKd of 5′-pAGCAGAAGCAGAGGUAUA-3′ [c5'] ?
# output 10.52

----------
- TARGET_DESC: UniProt:Q5V8Y6
- METHOD_NOTES: biochemical
- Set-up: species or system influenza B/Memphis/13/03
- ASSAY_SETUP: 0.025 mM NTPs; capped RNA primed; T ∼ 21°C; t = 5 min; not duplicate; read-out: IC50 (mM), vPol (c5' hook)
Reported IC50 values follow for various molecules
The figure you give is taken to be in mM; do not add the unit.

[[record]]
molecule = "Nc1nc2c(ncn2[C@@H]2O[C@H](COP(=O)(O)OP(=O)(O)OP(=O)(O)O)[C@@H](O)[C@H]2F)c(=O)[nH]1 [2'F-2'dGTP]"
target_desc = "UniProt:Q5V8Y6"
reading = 0.01


--- query ---
# input Quick check: IC50 of Nc1ncnc2c1ncn2[C@@H]1O[C@H](COP(=O)(O)OP(=O)(O)OP(=O)(O)O)[C@@H](O)[C@H]1F [2'F-2'dATP] ?
# output 0.03

----------
- TARGET_DESC: Cy3-labelled c3΄ RNA (18-mer)
- METHOD_NOTES: FRET assay of RNA-RNA interaction with c3΄ RNA
- Type: binding
- ASSAY_SETUP: FAM-labelled 5΄ RNA; T = 25°C
EXPERIMENTAL_ENDPOINT: Kd (nM)
The figure you give is taken to be in nM; do not add the unit.

# input Quick check: Kd of 5′-pAGCAGAAGCAGAGGUAUA-3′ [c5'] ?
# output 1.6

----------
Reported IC50 values follow for various compounds
- TARGET_DESC: influenza B polymerase initiating RNA synthesis at the cRNA promoter (cPol) (Influenza B virus, UniProt Q5V8Y6)
- METHOD_NOTES: biochemical
- Format: biochemical, influenza B/Memphis/13/03
- ASSAY_SETUP: 0.25 mM NTPs; capped RNA primed; T ∼ 21°C; t = 15 or 10 min; read-out: IC50 (mM), cPol
The figure you give is taken to be in mM; do not add the unit.

[[record]]
compound = "Nc1ncnc2c1ncn2[C@@H]1O[C@H](COP(=O)(O)OP(=O)(O)OP(=O)(O)O)[C@@H](O)[C@H]1F [2'F-2'dATP]"
experimental_endpoint = "IC50"
reading = 0.38


--- query ---
# input Quick check: IC50 of Nc1nc2c(ncn2[C@@H]2O[C@H](COP(=O)(O)OP(=O)(O)OP(=O)(O)O)[C@@H](O)[C@H]2F)c(=O)[nH]1 [2'F-2'dGTP] ?
# output 0.43

----------
- TARGET_DESC: influenza B polymerase initiating RNA synthesis at the cRNA promoter (cPol) (Influenza B virus, UniProt Q5V8Y6)
- METHOD_NOTES: biochemical
- Format: biochemical, influenza B/Memphis/13/03
- ASSAY_SETUP: 0.025 mM NTPs; capped RNA primed; T ∼ 21°C; t = 176 or 100 min; read-out: IC50 (mM), cPol
EXPERIMENTAL_ENDPOINT: IC50 (mM)
The figure you give is taken to be in mM; do not add the unit.

[[record]]
molecule = "Nc1nc2c(ncn2[C@@H]2O[C@H](COP(=O)(O)OP(=O)(O)OP(=O)(O)O)[C@@H](O)[C@H]2F)c(=O)[nH]1 [2'F-2'dGTP]"
reading = 0.28


--- query ---
# input Quick check: IC50 of Nc1ncnc2c1ncn2[C@@H]1O[C@H](COP(=O)(O)OP(=O)(O)OP(=O)(O)O)[C@@H](O)[C@H]1F [2'F-2'dATP] ?
# output 0.7

The reported numbers originate from paper PMC5399792.
